# Assayed system: Tyrosine-protein kinase ABL1 (Homo sapiens, UniProt P00519)
# Sequence (P00519 whole entry, looked up): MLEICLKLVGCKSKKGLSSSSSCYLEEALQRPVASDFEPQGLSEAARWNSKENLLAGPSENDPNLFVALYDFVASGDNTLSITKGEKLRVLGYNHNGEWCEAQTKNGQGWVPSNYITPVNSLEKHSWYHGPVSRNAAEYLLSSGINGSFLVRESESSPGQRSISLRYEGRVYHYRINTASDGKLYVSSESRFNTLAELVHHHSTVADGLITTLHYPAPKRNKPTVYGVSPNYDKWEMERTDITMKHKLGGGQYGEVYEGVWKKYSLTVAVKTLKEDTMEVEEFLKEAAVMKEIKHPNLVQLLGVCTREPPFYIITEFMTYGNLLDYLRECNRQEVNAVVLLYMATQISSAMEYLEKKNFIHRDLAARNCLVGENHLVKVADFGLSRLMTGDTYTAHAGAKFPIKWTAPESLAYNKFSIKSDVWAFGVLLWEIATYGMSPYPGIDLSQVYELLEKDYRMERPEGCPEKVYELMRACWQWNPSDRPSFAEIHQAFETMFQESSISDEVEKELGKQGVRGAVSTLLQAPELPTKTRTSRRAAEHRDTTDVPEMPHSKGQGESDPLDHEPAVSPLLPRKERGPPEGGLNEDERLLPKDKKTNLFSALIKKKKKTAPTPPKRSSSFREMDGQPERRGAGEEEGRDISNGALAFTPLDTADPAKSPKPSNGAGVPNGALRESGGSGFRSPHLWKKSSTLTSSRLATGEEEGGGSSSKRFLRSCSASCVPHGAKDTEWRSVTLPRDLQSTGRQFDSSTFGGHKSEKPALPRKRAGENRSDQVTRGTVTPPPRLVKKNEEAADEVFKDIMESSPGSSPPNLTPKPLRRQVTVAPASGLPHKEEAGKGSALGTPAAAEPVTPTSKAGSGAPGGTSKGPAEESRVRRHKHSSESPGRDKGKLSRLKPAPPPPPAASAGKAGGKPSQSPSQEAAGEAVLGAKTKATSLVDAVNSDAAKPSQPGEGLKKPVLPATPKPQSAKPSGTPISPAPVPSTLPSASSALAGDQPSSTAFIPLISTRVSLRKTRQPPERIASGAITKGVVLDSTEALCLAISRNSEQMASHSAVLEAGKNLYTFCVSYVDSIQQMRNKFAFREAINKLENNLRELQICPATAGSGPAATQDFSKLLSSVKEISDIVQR
Decide using IC50 alone. Strictly below 400 nM: Satisfied. Equal to or above 400 nM: Not satisfied.

CCCCCC(=O)Nc1cccc(Nc2nccc(-c3cccnc3)n2)c1 = Satisfied
O=C(O)c1cccc(Nc2nccc(-c3cccnc3)n2)c1 = Not satisfied
Cc1ccc(NC(=O)c2ccc(Cl)cc2)cc1Nc1nccc(-c2cccnc2)n1 = Not satisfied
O=C(Nc1cccc(Nc2nccc(-c3cccnc3)n2)c1)C1CCCCC1 = Not satisfied

Challenge: Quick check: does N#Cc1ccc(C(=O)Nc2cccc(Nc3nccc(-c4cccnc4)n3)c2)cc1 have IC50 under 400 nM?
Response given: Not satisfied

Challenge: Quick check: does COC(=O)c1cccc(Nc2nccc(-c3cccnc3)n2)c1 have IC50 under 400 nM?
Response given: Not satisfied

Challenge: Quick check: does Cc1ccc(NC(=O)c2ccc3ccccc3c2)cc1Nc1nccc(-c2cccnc2)n1 have IC50 under 400 nM?
Response given: Satisfied

Challenge: Quick check: does Cc1ccc(C(=O)Nc2cccc(Nc3nccc(-c4cccnc4)n3)c2)cc1 have IC50 under 400 nM?
Response given: Not satisfied

* * *

# Assayed system: Protein kinase C delta type (Homo sapiens)
# Sequence (Q05655 whole entry): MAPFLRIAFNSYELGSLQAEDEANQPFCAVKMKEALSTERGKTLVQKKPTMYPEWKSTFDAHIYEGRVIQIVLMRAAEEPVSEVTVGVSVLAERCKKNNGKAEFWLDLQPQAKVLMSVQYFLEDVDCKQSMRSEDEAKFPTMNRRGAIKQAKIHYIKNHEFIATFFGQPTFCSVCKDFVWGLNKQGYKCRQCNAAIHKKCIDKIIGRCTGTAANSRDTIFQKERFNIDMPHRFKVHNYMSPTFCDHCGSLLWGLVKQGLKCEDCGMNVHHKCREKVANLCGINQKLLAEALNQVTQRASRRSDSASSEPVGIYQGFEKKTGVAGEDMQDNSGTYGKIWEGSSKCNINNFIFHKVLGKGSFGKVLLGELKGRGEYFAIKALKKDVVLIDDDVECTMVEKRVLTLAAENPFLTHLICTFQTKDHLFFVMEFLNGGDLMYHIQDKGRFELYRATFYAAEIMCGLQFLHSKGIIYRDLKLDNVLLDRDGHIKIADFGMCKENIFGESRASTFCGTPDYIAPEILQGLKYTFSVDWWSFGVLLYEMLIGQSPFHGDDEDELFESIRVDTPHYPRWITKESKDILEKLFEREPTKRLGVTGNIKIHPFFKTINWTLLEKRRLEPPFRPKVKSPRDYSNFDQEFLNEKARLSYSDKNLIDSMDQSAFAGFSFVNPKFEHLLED
# Measurement notes: Inhibition of protein kinase C delta.
Listing: IC50 of selected compounds
Express it in µM; write the number only.

Recorded results for 6 compounds are shown here.
c1cc(Nc2nccc(-c3cccnc3)n2)cc(OCCn2ccnc2)c1 = 34
c1ccc(Nc2nccc(-c3cccnc3)n2)cc1 = 39
Clc1cccc(Nc2nccc(-c3cccnc3)n2)c1 = 23
CCCCCC(=O)Nc1cccc(Nc2nccc(-c3cccnc3)n2)c1 = 19
O=C(Nc1cccc(Nc2nccc(-c3cccnc3)n2)c1)c1ccncc1 = 24
NCCCn1ccc2c(-c3ccnc(Nc4cccc(OC(F)(F)C(F)F)c4)n3)cccc21 = 4.4

GET /value?item= c1cncc(-c2ccnc(Nc3cccc(-n4ccnc4)c3)n2)c1 &field=IC50 returns 21

* * *

# Assayed system: Tyrosine-protein kinase ABL1 (Homo sapiens)
Each entry falls into one class according to its IC50; the ranges are low: < 400 nM; mid: ≥ 400 nM and < 2000 nM; high: ≥ 2000 nM

# count of solved cases: 5
O=[N+]([O-])c1cccc(Nc2nccc(-c3ccccn3)n2)c1 = mid
O=[N+]([O-])c1cccc(Nc2nccc(-c3ccncc3)n2)c1 = high
COc1ccccc1C(=O)Nc1cccc(Nc2nccc(-c3cccnc3)n2)c1 = mid
FC(F)C(F)(F)Oc1cccc(Nc2nccc(-c3c[nH]c4ccccc34)n2)c1 = low
Cc1ccc(N)cc1Nc1nccc(-c2cccnc2)n1 = mid

Challenge: Band for the recorded IC50 of CN1CCN(Cc2ccc(C(=O)Nc3cccc(Nc4nccc(-c5cccnc5)n4)c3)cc2)CC1 ?
Response given: low

* * *

# Assayed system: cAMP-dependent protein kinase (PKA) (Homo sapiens, UniProt P22694+P17612+P22612)
# Measurement notes: Inhibition of protein kinase A.
# Format: protein assay, unidentified
Result type: IC50

Recorded results for 3 compounds are shown here.
O=C(Nc1cccc(Nc2nccc(-c3cccnc3)n2)c1)c1ccncc1 = > 500 µM
FC(F)C(F)(F)Oc1cccc(Nc2nccc(-c3ccc(Cl)cc3)n2)c1 = > 500 µM
c1cc(Nc2nccc(-c3cccnc3)n2)cc(OCCn2ccnc2)c1 = 340 µM

GET /value?item= O=C(Nc1cccc(Nc2nccc(-c3cccnc3)n2)c1)c1cccs1 &field=IC50 returns > 500 µM

GET /value?item= O=C(O)c1ccccc1C(=O)Nc1cccc(Nc2nccc(-c3cccnc3)n2)c1 &field=IC50 returns > 500 µM

GET /value?item= FC(F)C(F)(F)Oc1cccc(Nc2nccc(-c3c[nH]c4ccccc34)n2)c1 &field=IC50 returns 73 µM

GET /value?item= Clc1cccc(Nc2nccc(-c3cccnc3)n2)c1 &field=IC50 returns > 500 µM

GET /value?item= O=C(Nc1cccc(Nc2nccc(-c3cccnc3)n2)c1)c1cccnc1 &field=IC50 returns > 500 µM

GET /value?item= O=C(Nc1cccc(Nc2nccc(-c3cccnc3)n2)c1)c1ccccc1 &field=IC50 returns > 500 µM

GET /value?item= c1cncc(-c2ccnc(Nc3cccc(-n4ccnc4)c3)n2)c1 &field=IC50 returns > 500 µM

All values here come from ChEMBL document CHEMBL1130562.
